- targetOrTestSystem: T1, SUVH5 SRA domain (Arabidopsis, UniProt O82175 362-528)
- T1 sequence: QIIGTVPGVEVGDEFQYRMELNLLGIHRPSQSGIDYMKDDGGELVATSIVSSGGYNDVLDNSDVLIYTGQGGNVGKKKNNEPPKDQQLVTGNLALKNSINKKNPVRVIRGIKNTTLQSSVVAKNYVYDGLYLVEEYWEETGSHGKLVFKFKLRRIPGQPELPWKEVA
- assayOverview: ITC; N = 0.48; ITC: 40 mM Tris-HCl pH 7.5, 50 mM NaCl, 2 mM b-mercaptoethanol, 25 C; FP: 20 mM Tris-HCl pH 7.5, 50 mM NaCl, 1 mM DTT, 20 C; EMSA: 25 mM Tris-HCl pH 7.5, 5% glycerol, 60 mM NaCl, 10 mM MgCl2, 0.4 mg/mL BSA, 2 mM DTT
- conditionSummary: protein: recombinant; tags: His6-SUMO, cleaved with Ulp1; chain copies: 2; self-complementary, 2 copies of strand
observable: Kd (nM)
Numbers only here, please. The scale is nM.

Can you look up the measured Kd of fully-5mCG duplex (ITC) (dsDNA, 5mC at central CG, both strands) DNA 1: CAGCTCGAGCTG DNA 2: CAGCTCGAGCTG for me? 1200
